# ASSAY TARGET: AaegOR31 (Aedes aegypti)
# Sequence (Q16JU0 1-381): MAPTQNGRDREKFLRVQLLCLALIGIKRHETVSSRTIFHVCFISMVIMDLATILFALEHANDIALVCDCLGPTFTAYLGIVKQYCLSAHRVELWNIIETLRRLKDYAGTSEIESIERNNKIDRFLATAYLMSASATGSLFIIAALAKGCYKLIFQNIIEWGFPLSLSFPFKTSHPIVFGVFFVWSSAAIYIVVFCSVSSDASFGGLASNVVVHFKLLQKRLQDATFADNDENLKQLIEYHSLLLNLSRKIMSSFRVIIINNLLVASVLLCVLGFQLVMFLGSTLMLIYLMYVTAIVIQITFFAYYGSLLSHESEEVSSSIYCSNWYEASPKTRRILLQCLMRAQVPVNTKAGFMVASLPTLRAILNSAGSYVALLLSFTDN
# Sequence (Q178U6 1-478 partner): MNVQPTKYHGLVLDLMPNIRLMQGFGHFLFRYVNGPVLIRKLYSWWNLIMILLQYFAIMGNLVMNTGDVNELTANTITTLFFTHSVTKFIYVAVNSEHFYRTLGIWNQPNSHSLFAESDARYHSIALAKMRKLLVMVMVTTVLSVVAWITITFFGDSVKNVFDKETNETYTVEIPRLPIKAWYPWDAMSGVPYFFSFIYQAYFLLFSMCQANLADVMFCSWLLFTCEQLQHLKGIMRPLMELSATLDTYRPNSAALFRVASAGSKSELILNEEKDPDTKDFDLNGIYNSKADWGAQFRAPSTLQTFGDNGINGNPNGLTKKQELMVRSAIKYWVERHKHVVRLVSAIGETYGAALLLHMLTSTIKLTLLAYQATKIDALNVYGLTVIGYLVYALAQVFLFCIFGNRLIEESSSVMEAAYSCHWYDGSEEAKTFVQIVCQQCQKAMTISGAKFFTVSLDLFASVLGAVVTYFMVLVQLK
# ASSAY COMMENT: Two-electrode voltage clamp of Xenopus laevis oocytes expressing AaegOR31/Orco (blends, unitary compounds, concentration-response)
# Assay type: cell-based
# EXPERIMENTAL CONTEXT: AaegOR31; compounds of blend Alcohols 1; average of 8 oocytes
Recorded Normalized response, Average, Alcohols 1 unitary compounds values for a group of compounds are listed next.
Form: value (number only, do not type unit).

Examples with answers:
CCCCO [n-butanol]; 0.0
CC(C)O [2-propanol]; 10.7
CCO [ethanol]; 0.0

Field: next compound
[Q] // returns reported Normalized response, Average, Alcohols 1 unitary compounds for input CO [methanol]
[A] 0.0

----------
Recorded Raw data (Responses in nA) Oocyte 6 values for a group of compounds are listed next.
# ASSAY TARGET: AaegOR6 (Aedes aegypti)
# ASSAY COMMENT: Two-electrode voltage clamp of Xenopus laevis oocytes expressing AaegOR6/Orco (blends, unitary compounds, concentration-response)
# Assay type: cell-based
# EXPERIMENTAL CONTEXT: Indoles 2 unitary compounds; oocyte 6
Entry rule: numbers only, all in nA.

Examples with answers:
O=Cc1ccnc2ccccc12; 0.0
O=C1CCOc2ccccc21; 650.0

Field: next compound
[Q] // returns reported Raw data (Responses in nA) Oocyte 6 for input Nc1cccc2cnccc12
[A] 0.0

----------
Recorded Raw data (Responses in nA) Oocyte 7 values for a group of compounds are listed next.
# ASSAY TARGET: UniProt:A0A1S4G757
# ASSAY COMMENT: Two-electrode voltage clamp of Xenopus laevis oocytes expressing AaegOR6/Orco (blends, unitary compounds, concentration-response)
# Type: cell-based
# EXPERIMENTAL CONTEXT: Indoles 2 unitary compounds; oocyte 7
Please answer using the number first and the unit second.

[Q] Query for UniProt:A0A1S4G757: what Raw data (Responses in nA) Oocyte 7 does the record show for c1ccc2ncccc2c1 ?
[A] 10.0 nA

----------
# ASSAY TARGET: AaegOR71 (Aedes aegypti, UniProt A0A3S7SHD4)
# Sequence (A0A3S7SHD4 1-415): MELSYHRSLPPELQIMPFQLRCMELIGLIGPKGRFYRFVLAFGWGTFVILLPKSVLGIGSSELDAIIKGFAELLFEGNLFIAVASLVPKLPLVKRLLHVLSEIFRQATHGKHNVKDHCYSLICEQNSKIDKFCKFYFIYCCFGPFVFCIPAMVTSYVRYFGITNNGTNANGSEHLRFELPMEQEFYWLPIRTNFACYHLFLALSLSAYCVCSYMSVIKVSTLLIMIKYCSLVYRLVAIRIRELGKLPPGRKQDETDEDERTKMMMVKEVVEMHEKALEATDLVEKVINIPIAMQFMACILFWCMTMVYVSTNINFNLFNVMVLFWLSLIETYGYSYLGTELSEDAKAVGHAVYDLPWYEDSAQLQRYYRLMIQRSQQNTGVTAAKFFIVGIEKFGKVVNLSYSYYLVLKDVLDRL
# Sequence (Q178U6 1-478 partner): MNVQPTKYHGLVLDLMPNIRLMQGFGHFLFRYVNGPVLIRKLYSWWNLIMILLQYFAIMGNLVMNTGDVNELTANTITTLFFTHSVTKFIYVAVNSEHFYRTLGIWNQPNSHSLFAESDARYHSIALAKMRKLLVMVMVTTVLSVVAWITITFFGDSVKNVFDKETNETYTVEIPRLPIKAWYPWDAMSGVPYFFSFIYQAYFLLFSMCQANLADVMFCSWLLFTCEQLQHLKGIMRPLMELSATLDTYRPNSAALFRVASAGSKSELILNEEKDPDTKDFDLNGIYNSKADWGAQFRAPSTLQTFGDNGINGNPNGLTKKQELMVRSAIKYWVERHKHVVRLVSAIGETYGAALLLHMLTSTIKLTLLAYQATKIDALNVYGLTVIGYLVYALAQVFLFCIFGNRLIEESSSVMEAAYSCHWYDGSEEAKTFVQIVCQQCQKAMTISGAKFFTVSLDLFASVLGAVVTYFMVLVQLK
# ASSAY COMMENT: Two-electrode voltage clamp of Xenopus laevis oocytes expressing AaegOR71/Orco (blends, unitary compounds, concentration-response)
# Assay type: cell-based
# EXPERIMENTAL CONTEXT: Indoles 2 unitary compounds; oocyte 2
# Experimental: The coding regions of ten AaegOR genes of interest (S3 File) and AaegOrco were synthesized by Twist Bioscience (San Francisco, CA, USA) and cloned into the pENTR plasmid. […] pSP64t-RFA: AaegOR clones were linearized using Xbal, and cRNAs were synthesized using the mMESSAGE mMACHINE ® SP6 kit (Life Technologies, Carlsbad, CA, USA). […] Induced currents were measured indirectly using the two-electrode voltage clamp technique (TEVC). […]
READOUT: Raw Data (Response in nA) Oocyte 2
Entry rule: numbers only, all in nA.

c1ccc2ncncc2c1; 440
O=C1Nc2ccccc2C1=O; 0
O=Cc1ccnc2ccccc12; 2930
c1ccc2ncccc2c1; 2210

[Q] // returns reported Raw Data (Response in nA) Oocyte 2 for input OCc1c[nH]c2ccccc12
[A] 0

----------
# ASSAY TARGET: AaegOR71 (Aedes aegypti, UniProt A0A3S7SHD4)
# ASSAY COMMENT: Two-electrode voltage clamp of Xenopus laevis oocytes expressing AaegOR71/Orco (blends, unitary compounds, concentration-response)
# Type: cell-based
# EXPERIMENTAL CONTEXT: Indoles 2 unitary compounds; oocyte 5
# Procedure: The coding regions of ten AaegOR genes of interest (S3 File) and AaegOrco were synthesized by Twist Bioscience (San Francisco, CA, USA) and cloned into the pENTR plasmid. […] pSP64t-RFA: AaegOR clones were linearized using Xbal, and cRNAs were synthesized using the mMESSAGE mMACHINE ® SP6 kit (Life Technologies, Carlsbad, CA, USA). […] Induced currents were measured indirectly using the two-electrode voltage clamp technique (TEVC). […]
Recorded Raw Data (Response in nA) Oocyte 5 values for a group of compounds are listed next.
Entry rule: numbers only, all in nA.

O=C1Cc2ccccc2N1; 0
O=C1Nc2ccccc2C1=O; 0
Nc1cccc2cnccc12; 0
OCc1c[nH]c2ccccc12; 0
c1ccc2nccnc2c1; 60

Field: next compound
[Q] // returns reported Raw Data (Response in nA) Oocyte 5 for input c1ccc2ncccc2c1
[A] 300

----------
# ASSAY TARGET: AaegOR6 (Aedes aegypti)
# ASSAY COMMENT: Two-electrode voltage clamp of Xenopus laevis oocytes expressing AaegOR6/Orco (blends, unitary compounds, concentration-response)
# Type: cell-based
# EXPERIMENTAL CONTEXT: Indoles 2 unitary compounds; oocyte 8
READOUT: Raw data (Responses in nA) Oocyte 8
Entry rule: numbers only, all in nA.

Examples with answers:
O=C1CCOc2ccccc21; 510.0
O=C1Cc2ccccc2N1; 10.0
Oc1cccc2[nH]ccc12 [4-Hydroxyindole]; 0.0

[Q] Query for AaegOR6 (Aedes aegypti): what Raw data (Responses in nA) Oocyte 8 does the record show for O=Cc1ccnc2ccccc12 ?
[A] 0.0

----------
Recorded Raw data (Responses in nA) Oocyte 7 values for a group of compounds are listed next.
# ASSAY TARGET: AaegOR6 (Aedes aegypti, UniProt A0A1S4G757)
# Sequence (A0A1S4G757 1-398, one chain of several): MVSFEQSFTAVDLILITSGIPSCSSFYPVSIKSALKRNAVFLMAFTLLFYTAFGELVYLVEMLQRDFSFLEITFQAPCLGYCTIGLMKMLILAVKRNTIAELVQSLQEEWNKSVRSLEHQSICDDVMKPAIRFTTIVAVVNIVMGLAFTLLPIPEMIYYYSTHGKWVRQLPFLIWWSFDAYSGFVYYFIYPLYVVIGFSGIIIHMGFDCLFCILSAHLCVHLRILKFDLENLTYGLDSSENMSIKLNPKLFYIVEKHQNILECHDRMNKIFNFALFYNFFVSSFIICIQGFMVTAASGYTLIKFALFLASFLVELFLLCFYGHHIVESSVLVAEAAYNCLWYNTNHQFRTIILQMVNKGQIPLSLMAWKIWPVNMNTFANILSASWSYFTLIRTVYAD
# ASSAY COMMENT: Two-electrode voltage clamp of Xenopus laevis oocytes expressing AaegOR6/Orco (blends, unitary compounds, concentration-response)
# Type: cell-based
# EXPERIMENTAL CONTEXT: Indoles 2 unitary compounds; oocyte 7
Entry rule: numbers only, all in nA.

c1ccc2ncncc2c1 [Quinazoline]; 0.0
O=C1Cc2ccccc2N1 [Oxindole]; 0.0
Nc1cccc2cnccc12 [5-Aminoisoquinoline]; 0.0

Field: next compound
[Q] // returns reported Raw data (Responses in nA) Oocyte 7 for input O=C(O)Cc1c[nH]c2ccccc12 [1H-Indole-3-acetic acid]
[A] 0.0
